# Assay Target: Tumor susceptibility gene 101 protein (Homo sapiens)
# Measurement Protocol: qHTS Assay for Iinhibitors of HIV-1 Budding by Blocking the Interaction of PTAP/TSG101: Hit Validation in TR assay
# Setup Conditions: Tsg101 binding domain + Texas Red-labeled PTAP peptide, fluorescence polarization, 20 min; series mostly up to 57.5 µM
# Description: Stages of the HIV-1 replication cycle, specifically virus assembly and release, provide underexploited targets for the development of novel antiviral inhibitors. The late stages of HIV-1 replication are mediated by the Gag precursor protein, Pr55Gag. […] A fluorescence anisotropy assay has been developed to quantitatively measure the PTAP-Tsg101 interaction which can be used to screen for inhibitors of this interaction. […]
Records with an inconclusive call do not appear. Active and inactive are the calls of the source. Calls come from the whole dose curve; as a rule, active = well fitted inhibition curve with a large enough effect; inconclusive = small, poorly fitted or top-dose-only effect; inactive = no such curve, though single readings can be large or run the other way.
Outcomes: y for active, n for inactive

- COc1ccc(-c2onc3ccc(Br)cc23)cc1: n
- CCn1c(C)cc(C=C2C(=O)c3ccccc3C2=O)c1C: n
- CCCn1c(O)c(N=Nc2ccc3ccccc3n2)c2ccccc21: n
- CC1=Nc2ccccc2/C1=C\c1nc(-c2ccc(F)cc2)oc1O: n
- CC(C)(C)c1cc[n+](-c2[nH]c(=O)sc2/C=N/NC(=O)c2ccccc2[O-])cc1: n
- C=CCn1c(=O)[nH]c2nc3cc(N=CN(C)C)c(C)cc3nc2c1=O: y
- O=C(c1ccccc1)[C@@H]1[C@@H]2C(=O)N(c3ccc(F)cc3)C(=O)[C@@H]2C2CCCN21 (some centres not stated): n
- CCCN(CCC)S(=O)(=O)c1ccc(C(=O)OCCN2C(=O)c3cccc4c(N5CCOCC5)ccc(c34)C2=O)cc1: n
- NC(=O)c1ccccc1NCC(=O)c1ccc(F)cc1: n
- CCOc1cc(/C=C(\C#N)c2nc(-c3cccs3)c(NC(C)=O)s2)ccc1O: n
- CN1c2ccc(C=O)c3c(C=O)ccc(c23)N(C)C1(C)C: n
- COc1ccc2nc(N3CCCC3)c(C#N)cc2c1: n
- Cc1ccc(/C=C/C(=O)Nc2ccc(S(=O)(=O)Nc3onc(C)c3C)cc2)cc1: n
- CC(C)(C)C(=O)c1sc2nc(-c3cccs3)cc(C(F)(F)F)c2c1N: n
- Cn1cccc1/C=C1\SC(=S)N(NC(=O)c2ccccc2Cl)C1=O: n
- Cc1cccc(CCNC(=O)c2sc3nc4n(c(=O)c3c2C)CCCC4)c1: n
- N=c1oc2ccc3ccccc3c2cc1-c1nc(-c2ccccc2)cs1: n
- O=c1oc2c3c4c(cc2c2c1CCC2)OCCN4CCC3: n
- COc1ccc(OC)c2c1C(=O)c1ccccc1C2=O: n
- CC[C@@]1(C(=O)OC)N[C@H](CN(C)C(=O)c2ccc(C)cc2)[C@@H]2C(=O)N(Cc3ccccc3)C(=O)[C@@H]21: n
- CCOc1ccc(NC(=O)N(C2CCCCC2)C(C)c2ccncc2)cc1 (configuration not stated): n
- CC(C)CSC1=NSC2=NC(=O)/C(=C\c3coc4ccccc4c3=O)C(=N)N12: n
- CC(=O)Nc1ccc(N=Cc2c(O)c(C(=O)Nc3ccccc3)cc3ccccc23)cc1: n
- CCN(CC)C(=O)[C@H]1CC(CC(=O)NCc2cccc(C(F)(F)F)c2)C(=O)N2CCc3c([nH]c4ccc(OC)cc34)[C@]12C (some centres not stated): n
- Cc1cc[n+](-c2[nH]c(=O)sc2/C=N/NC([S-])=Nc2ccccc2)cc1: n
- Cc1cc(Nc2cccc(Cl)c2C)n2ncnc2n1: n
- CCN1CC=C2C(C#N)=C(N)C(C#N)(C#N)C(CCc3ccccc3)C2C1 (configuration not stated): y
- Cc1ccc(CNC(=O)C2CCCN(S(=O)(=O)c3c(C)[nH]c(=O)[nH]c3=O)C2)cc1 (configuration not stated): n
- Brc1ccc(C2=CC(c3cccs3)n3ncnc3N2)cc1 (configuration not stated): n
- Cn1c(=O)c(N)c2c3c(c(Br)ccc31)C(=O)c1ccccc1-2: y
- Cc1cc(C)n2nc3nc4c(cc3c2n1)CCCC4: n
- CCN(CC)C(=O)Cn1c(=O)c2ccccc2n2c(=S)sc(-c3cccc(C)c3)c12: n
- Cc1c2ccccc2nc2c(F)c(N(C)C)c(F)c(F)c12: n
- COc1cccc2c1C(=O)c1c(O)c3c(c(O)c1C2=O)CC(O)(C(C)=O)CC3OC1CC(N(C)C)C(O)C(C)O1 (configuration not stated): n
- Cc1ccc(C2C3CN(C(C)C)CC=C3C(C#N)=C(N)C2(C#N)C#N)cc1 (configuration not stated): n
- COC(=O)c1cc(N2CCN(C)CC2)nc2ccccc12: n
- Nc1cccc2c(O)cc(S(=O)(=O)O)cc12: n
- O=C1/C(=N\S(=O)(=O)c2cccs2)C([n+]2cccc(Cc3ccccc3)c2)=C([O-])c2ccccc21: n
- O=S(=O)(Nc1cccc(-c2ccc(N3CCCCCC3)nn2)c1)c1cccc(F)c1: n
- CCC(=O)Nc1ccc(NC(=O)C23CC4CC(CC(C4)C2)C3)cn1: n
- CCOC(=O)c1c(C)oc2c1c(CN1CCN(C(=O)OCC)CC1)c(O)c1ccccc12: n
- O=c1cc2oc3cc(O)c(O)cc3c(-c3ccccc3O)c-2cc1O: y

====

# Assay Target: Tumor susceptibility gene 101 protein (Homo sapiens) (UniProt Q99816)
# Sequence (Q99816 whole entry, looked up): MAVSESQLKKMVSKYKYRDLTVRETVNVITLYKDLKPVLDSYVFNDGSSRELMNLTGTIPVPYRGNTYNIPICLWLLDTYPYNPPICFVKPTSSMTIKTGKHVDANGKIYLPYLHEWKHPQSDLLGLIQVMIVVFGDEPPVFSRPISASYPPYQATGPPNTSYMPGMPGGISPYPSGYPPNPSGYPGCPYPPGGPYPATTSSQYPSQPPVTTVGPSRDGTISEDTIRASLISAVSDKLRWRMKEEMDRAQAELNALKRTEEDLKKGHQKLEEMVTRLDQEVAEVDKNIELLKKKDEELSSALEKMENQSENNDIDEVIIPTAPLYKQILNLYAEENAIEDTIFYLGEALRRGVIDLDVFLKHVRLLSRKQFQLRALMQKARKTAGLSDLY
# Measurement Protocol: qHTS Assay for Iinhibitors of HIV-1 Budding by Blocking the Interaction of PTAP/TSG101: Hit Validation in TR assay
# Setup Conditions: Tsg101 binding domain + Texas Red-labeled PTAP peptide, fluorescence polarization, 20 min; series mostly up to 57.5 µM
Results filed as inconclusive are left out. The source made the active and inactive calls. Calls come from the whole dose curve; as a rule, active = well fitted inhibition curve with a large enough effect; inconclusive = small, poorly fitted or top-dose-only effect; inactive = no such curve, though single readings can be large or run the other way.
Labels: yes for active, no for inactive

* CCCCCCc1cc2cc(C(=O)NC)c(=N)oc2cc1O | no
* Oc1ccc2ccccc2c1N=Nc1nccs1 | no
* COc1ccccc1NC(=O)c1sc2nc(Cc3ccccc3)cc(C(F)(F)F)c2c1N | no
* COC(=O)c1c(NC(=O)CC2Nc3cc(C)c(C)cc3NC2=O)sc(C)c1C (stereo unspecified) | yes
* O=[N+]([O-])c1cc(Cl)cc(/C=N/n2cnnc2)c1O | no
* Cc1ccc(-c2nc(C=Nc3ccc(O)cc3)c(O)o2)cc1 | no
* O=c1[nH]c(=O)n(-c2cc(Br)c(O)c(Br)c2)cc1Br | no
* O=[N+]([O-])c1cc(Cl)cc(/C=N/NC(=S)Nc2ccc(S(=O)(=O)N3CCOCC3)cc2)c1O | no
* CCN(C(=O)c1sc2nc3n(c(=O)c2c1C)CCCC3)c1ccccc1F | no
* O=C1NC(=S)/C(=C\c2ccc(-c3ccccc3Cl)o2)S1 | no
* O=S(=O)(Nc1nc2n(n1)C(c1ccccc1)C=C(c1ccc(Cl)cc1)N2)c1ccccc1 (stereo unspecified) | no

====

# Assay Target: Tumor susceptibility gene 101 protein (Homo sapiens) (UniProt Q99816)
# Measurement Protocol: qHTS Assay for Iinhibitors of HIV-1 Budding by Blocking the Interaction of PTAP/TSG101: Hit Validation in TR assay
# Setup Conditions: Tsg101 binding domain + Texas Red-labeled PTAP peptide, fluorescence polarization, 20 min; series mostly up to 57.5 µM
Records with an inconclusive call do not appear. Calls of active or inactive are those of the source. Calls follow the shape of the dose curve; as a rule, active = well fitted inhibition curve with a large enough effect; inconclusive = small, poorly fitted or top-dose-only effect; inactive = no such curve, though single readings can be large or run the other way.
Outcomes: active, inactive

- CCN(CC)c1ccc2cc(S(=O)(=O)c3ccc(Cl)cc3)c(=O)oc2c1: inactive
- N#Cc1c(C#N)c(O)c2ccccc2c1O: inactive
- CC(C)(C)OC(=O)NC(Cc1ccccc1)C(=O)N1CCC(C(=O)NCC(=O)Nc2ccc(F)cc2)CC1 (stereo unspecified): inactive
- c1ccc2c(c1)CCCN2Cc1nnnn1CC1CCCO1 (stereo unspecified): active
- C=CCOc1ccc(C2C(C(=O)c3cccs3)=C(O)C(=O)N2c2nnc(C)s2)cc1 (stereo unspecified): inactive
- CCOc1ccc(S(=O)(=O)N2CCc3cc(OC)c(OC)cc3C2)cc1: inactive
- CCN(CC)c1nc2ccccc2nc1C(C#N)C(=O)NCCc1ccccc1 (stereo unspecified): inactive
- CN(C)c1ccc(N=Cc2nc(-c3ccccc3)oc2O)cc1: inactive
- N#Cc1ccsc1NC(=O)CSc1nncs1: inactive
- CC1CCc2cccc3c2N1c1cc(C#N)c(C#N)cc1O3 (stereo unspecified): inactive
- Cc1c2cc(O)c(=O)cc-2oc2cc(O)c(O)cc12: inactive

====

# Assay Target: Tumor susceptibility gene 101 protein (Homo sapiens) (UniProt Q99816)
# Measurement Protocol: qHTS Assay for Iinhibitors of HIV-1 Budding by Blocking the Interaction of PTAP/TSG101: Hit Validation in TR assay
# Setup Conditions: Tsg101 binding domain + Texas Red-labeled PTAP peptide, fluorescence polarization, 20 min; series mostly up to 57.5 µM
Inconclusive results are not listed. Calls of active or inactive are those of the source. The call rests on the fitted dose curve; in most records, active means well fitted inhibition curve with a large enough effect; inconclusive means small, poorly fitted or top-dose-only effect; inactive means no such curve, though single readings can be large or run the other way.
Outcomes: TRUE for active, FALSE for inactive

• N#CC(C#N)=C1C=C2C=C(N3CCCCC3)CCC2CC1 (stereo not given) = FALSE
• COc1ccccc1N1C(=O)C2C(C(=O)c3ccccc3)=NN(c3ccc(C)cc3)C2C1=O (stereo not given) = FALSE
• CCN(CC)c1ccc2c(-c3ccc(S(=O)(=O)O)cc3S(=O)(=O)[O-])c3ccc(=[N+](CC)CC)cc-3oc2c1 = TRUE
• OCCN(CCO)c1nc(N2CCCCC2)c2nc(N(CCO)CCO)nc(N3CCCCC3)c2n1 = FALSE
• COc1ccc(N=Nc2nc3cc(Br)c(Br)cc3n2C)c(OC)c1 = FALSE
• COc1ccc(CNS(=O)(=O)c2cc3c(cc2Cl)N(C(C)=O)CCO3)cc1 = FALSE
• COc1cc(-c2cc(-c3ccc(N)cc3)[nH]c(=O)c2C#N)cc(OC)c1OC = FALSE
• O=C(Nc1nc2c(s1)CN(Cc1ccccc1)CC2)c1cccc(S(=O)(=O)N2CCc3ccccc32)c1 = FALSE
• COc1ccccc1Nc1nc2ccc(C)cc2cc1C#N = FALSE
• CC(C)c1cc(=O)oc2c3c4c(cc12)CCCN4CCC3 = FALSE
